# target desc: Solute carrier family 15 member 1 (Homo sapiens) (UniProt P46059)
# Sequence (P46059 whole entry): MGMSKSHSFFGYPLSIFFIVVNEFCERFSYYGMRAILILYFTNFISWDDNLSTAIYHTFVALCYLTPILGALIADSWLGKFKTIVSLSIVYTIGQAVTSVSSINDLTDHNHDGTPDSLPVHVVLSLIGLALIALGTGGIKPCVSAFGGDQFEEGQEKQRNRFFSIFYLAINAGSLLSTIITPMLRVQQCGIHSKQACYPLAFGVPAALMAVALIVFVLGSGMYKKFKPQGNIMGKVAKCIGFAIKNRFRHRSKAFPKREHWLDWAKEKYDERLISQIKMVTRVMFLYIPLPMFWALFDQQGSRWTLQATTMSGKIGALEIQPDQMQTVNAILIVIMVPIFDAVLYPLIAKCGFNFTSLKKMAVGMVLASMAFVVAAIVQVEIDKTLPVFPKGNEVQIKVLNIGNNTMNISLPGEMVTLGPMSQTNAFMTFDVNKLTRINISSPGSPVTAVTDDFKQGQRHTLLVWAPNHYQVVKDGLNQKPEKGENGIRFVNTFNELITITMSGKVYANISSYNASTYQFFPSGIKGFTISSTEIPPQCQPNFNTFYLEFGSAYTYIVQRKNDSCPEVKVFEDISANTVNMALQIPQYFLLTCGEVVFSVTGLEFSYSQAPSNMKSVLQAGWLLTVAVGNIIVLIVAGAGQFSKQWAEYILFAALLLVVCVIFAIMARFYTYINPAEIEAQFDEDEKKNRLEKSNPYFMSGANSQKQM
# protocol summary: TP_TRANSPORTER: uptake in Xenopus laevis oocytes
# Assay type: functional, cell-based
# run conditions: Oocyte
outcome measure: Activity

CC1=C(C(=O)O)N2C(=O)[C@@H](NC(=O)[C@H](N)c3ccc(O)cc3)[C@H]2SC1    substrate [+]
CC1(C)S[C@@H]2[C@H](NC(=O)Cc3ccccc3)C(=O)N2[C@H]1C(=O)O    substrate [+]
C[C@@H](O)[C@H]1C(=O)N2C(C(=O)O)=C([C@H]3CCCO3)S[C@H]12    is not a substrate [-]
CCOC(=O)[C@H](CCc1ccccc1)N[C@H]1CS[C@H](c2cccs2)CN(CC(=O)O)C1=O    substrate [+]
O=C(O)CN1C[C@@H](c2cccs2)SC[C@H](N[C@@H](CCc2ccccc2)C(=O)O)C1=O    substrate [+]

Return the recorded Activity value; entry: CO/N=C(\C(=O)N[C@@H]1C(=O)N2C(C(=O)O)=CCS[C@H]12)c1csc(N)n1
is not a substrate [-]

Return the recorded Activity value; entry: NCCCC[C@H](N[C@@H](CCc1ccccc1)C(=O)O)C(=O)N1CCC[C@H]1C(=O)O
is not a substrate [-]

Return the recorded Activity value; entry: C=CC1=C(C(=O)O)N2C(=O)[C@@H](NC(=O)/C(=N\O)c3csc(N)n3)[C@H]2SC1
substrate [+]

Return the recorded Activity value; entry: Nc1nc(/C(=C/CC(=O)O)C(=O)N[C@@H]2C(=O)N3C(C(=O)O)=CCS[C@H]23)cs1
substrate [+]

###

# target desc: Solute carrier family 15 member 1 (Homo sapiens) (UniProt P46059)
# protocol summary: TP_TRANSPORTER: uptake in Xenopus laevis oocytes
# Assay type: functional, cell-based
# run conditions: Oocyte
outcome measure: Activity

Look over these answered cases.
C=CC1=C(C(=O)O)N2C(=O)[C@@H](NC(=O)/C(=N\OCC(=O)O)c3csc(N)n3)[C@H]2SC1    substrate [+]
NCCC(=O)N[C@@H](Cc1c[nH]cn1)C(=O)O    substrate [+]
CCOC(=O)[C@H](CCc1ccccc1)N[C@@H](C)C(=O)N1CCC[C@H]1C(=O)O    substrate [+]
O=C(O)CO/N=C(\C(=O)N[C@@H]1C(=O)N2C(C(=O)O)=CCS[C@H]12)c1cscn1    substrate [+]

Below: the item to evaluate.
Return the recorded Activity value; entry: C[C@H](N[C@@H](CCc1ccccc1)C(=O)O)C(=O)N1CCC[C@H]1C(=O)O
substrate [+]

meta.source: ChEMBL document CHEMBL2074235
